target: Induced myeloid leukemia cell differentiation protein Mcl-1 (Homo sapiens) (UniProt Q07820); experiment: inhibitors of MCL1 binding to BIM-BH3, confirmation, biochemical, fluorescence polarization, triplicate (AID 2168); conditions: GST-MCL1 / FITC-Bim-BH3 fluorescence polarization; at 10.9 µM; active compounds read high;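 also: 0% = DMSO wells and 100% = unlabeled Bim-BH3 control peptide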
Sequence (Q07820 whole entry, looked up): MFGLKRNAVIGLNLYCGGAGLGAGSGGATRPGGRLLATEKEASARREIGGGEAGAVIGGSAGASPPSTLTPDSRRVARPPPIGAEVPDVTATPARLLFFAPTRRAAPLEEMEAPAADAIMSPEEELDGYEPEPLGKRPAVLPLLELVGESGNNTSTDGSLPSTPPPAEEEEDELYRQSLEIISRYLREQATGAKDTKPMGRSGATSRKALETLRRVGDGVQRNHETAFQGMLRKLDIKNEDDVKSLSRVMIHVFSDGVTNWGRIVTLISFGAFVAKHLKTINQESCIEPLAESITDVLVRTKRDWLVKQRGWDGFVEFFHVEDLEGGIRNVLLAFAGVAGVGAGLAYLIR
This is one part of the list.
Each item that follows carries a reported inhibition.
ATTRIBUTE MEASURED: inhibition (%)

• Oc1ccc2ccccc2c1N=Nc1nccs1 = -52.8
• COc1cc([C@H](Cc2ccccc2)NC(C)=O)oc(=O)c1 = 40.9
• CSc1c(SCc2ccccc2)cnn(Cc2ccccc2)c1=O = -3.67
• Cc1cc(C)c(/C=C2\C(=O)Nc3ccccc32)[nH]1 = 168

====

biological target: Nuclear receptor coactivator 3 (Homo sapiens); test: SRC3 coactivator transcriptional activity inhibitors, confirmation, cell-based, luminescence, quadruplicate (AID 588792); conditions: HEK293 GAL4-SRC3 luciferase reporter, at 3.6 µM, active compounds read high;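 also: 0% = DMSO treated cells and 100% = gossypol at 36 µM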
# label = 1 if inhibition >= 20% else 0

• CCOc1cc(CNc2ccc3c(c2)OCCO3)cc(Br)c1OCC = 1
• NC(=O)c1ccc(N2CCN(S(=O)(=O)c3cccs3)CC2)c([N+](=O)[O-])c1 = 0
• Cc1ccc(CSC(Nc2ccc(F)cc2)=C(C#N)C#N)cc1 = 0
• CC(C)(C)c1nnc(N/N=C/c2ccccc2O)n(N)c1=O = 1
• CN(C)C=Nc1ncc2c3ccccc3n(CCN(C)C)c2c1C#N = 1

====

experiment: VP16 transactivation inhibitors, counter-screen for SRC1 inhibitor project, cell-based, luminescence, high throughput (AID 588824); settings: cell-based VP16 transactivation luciferase luminescence; at 3.6 µM; active compounds read high
Calls of active or inactive are those of the source. Rule as the data show it: active = inhibition above about 25%; inactive = the rest.
ATTRIBUTE MEASURED: inhibition

• CN(Cc1cccnc1)C(=O)c1cc(COc2ccc3ncccc3c2)on1 = 26.4% (active)
• COc1cccc(CNc2ncnc3ccc(-c4c(C)noc4C)cc23)c1 = -7.49% (inactive)
• O=C(Nc1ccc2c(c1)OCCO2)C1CCCC1 = -33.3% (inactive)
• COC(=O)C(C)Sc1nc(NCc2ccccc2)nc(N(C)C)n1 (configuration not stated) = -11.6% (inactive)
• Cc1ccc2cc3cc(C(=O)NCc4ccco4)oc3nc2c1 = 36% (active)
• Cc1ccc(-c2nnn(CC(=O)N(Cc3cccs3)C(C(=O)NC3CCCC3)c3ccncc3)n2)cc1 (configuration not stated) = 34.1% (active)
• COCCN(C(=O)C1=COCCO1)c1c(N)n(Cc2ccccc2)c(=O)[nH]c1=O = -15.5% (inactive)
• Cn1c(=N)n(CC(=O)c2ccc(Cl)c(Cl)c2)c2ccccc21 = -61.4% (inactive)
• N#Cc1cc2c(nc1SCC(=O)N1CCOCC1)CCCCC2 = -17.9% (inactive)
• CCC(Oc1ccccc1)C(=O)Nc1cc(C(F)(F)F)ccc1N1CCOCC1 (configuration not stated) = 1.21% (inactive)
• Cn1c(C(=O)O)c(CC(=O)Nc2ccc3c(c2)OCCO3)c2ccccc21 = -7.4% (inactive)
• Cc1ccc(C2CC(C(F)(F)F)n3nc(C(=O)NCc4c(C)nn(C)c4C)c(Cl)c3N2)cc1 (configuration not stated) = 10.9% (inactive)
• Cc1ccc(NS(=O)(=O)c2ccc(C(=O)NC3CCN(Cc4ccccc4)CC3)cc2)cc1 = 24.2% (inactive)
• COc1ccccc1C(NC(C)=O)c1cc(Cl)c2cccnc2c1O (configuration not stated) = 26.6% (active)
• Cc1ccc(C(=O)O/N=C(\N)c2ccccc2)c(Cl)c1 = -64.6% (inactive)
• COc1ccc(CNC(=O)c2cccc3c(-c4cccnc4)coc23)cc1OC = 43.8% (active)
• CCCN(CC(=O)Nc1ccccc1C)C(=O)CCl = 53.4% (active)
